# System: Enterococcus faecalis
# experiment_notes: Antibacterial activity against cephalosporins and beta-lactam-resistant Enterococcus faecalis by microdilution method
# Assay type: functional
Calls of active or inactive are those of the source. The calls are words filed in the database; no cut-off is given here.
endpoint: MIC

Take a look at these entries with their results.
- COc1ccc(N2CCN(Cc3oc(CCl)cc(=O)c3O)CC2)cc1: 64 µg/mL
- COc1ccccc1N1CCN(Cc2oc(CCl)cc(=O)c2O)CC1: 128 µg/mL
- COc1cccc(N2CCN(Cc3oc(CCl)cc(=O)c3O)CC2)c1: 128 µg/mL
- O=c1cc(CCl)oc(CN2CCN(c3ccc(Cl)cc3)CC2)c1O: > 128 µg/mL
- OC(Cn1cncn1)(Cn1cncn1)c1ccc(F)cc1F: inactive

Need MIC, item CC(=O)N1CCN(c2ccc(OCC3COC(Cn4ccnc4)(c4ccc(Cl)cc4Cl)O3)cc2)CC1 (configuration not stated)
inactive

Please do the same for C[C@H]1COc2c(N3CCN(C)CC3)c(F)cc3c(=O)c(C(=O)O)cn1c23.C[C@H]1COc2c(N3CCN(C)CC3)c(F)cc3c(=O)c(C(=O)O)cn1c23.O as well.
32 µg/mL

Please do the same for CN[C@H](CC(C)C)C(=O)N[C@H]1C(=O)N[C@@H](CC(N)=O)C(=O)N[C@H]2C(=O)N[C@H]3C(=O)N[C@H](C(=O)N[C@H](C(=O)O)c4cc(O)cc(O)c4-c4cc3ccc4O)[C@H](O)c3ccc(c(Cl)c3)Oc3cc2cc(c3O[C@@H]2O[C@H](CO)[C@@H](O)[C@H](O)[C@H]2O[C@H]2C[C@](C)(N)[C@H](O)[C@H](C)O2)Oc2ccc(cc2Cl)[C@H]1O as well.
inactive

Please do the same for O=c1cc(CCl)oc(CN2CCN(c3ccc(Cl)c(Cl)c3)CC2)c1O as well.
64 µg/mL

Please do the same for O=c1cc(CCl)oc(CN2CCN(c3cccc(C(F)(F)F)c3)CC2)c1O as well.
32 µg/mL
